These measurements were taken from patent US10414797B2.

# Target system: UniProt:P03956
# Sequence (P03956 100-269): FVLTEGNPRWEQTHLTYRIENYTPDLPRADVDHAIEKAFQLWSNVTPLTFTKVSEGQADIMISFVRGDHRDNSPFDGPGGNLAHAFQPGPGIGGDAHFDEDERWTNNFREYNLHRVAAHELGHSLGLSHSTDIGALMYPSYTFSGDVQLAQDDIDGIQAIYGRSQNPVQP
# Experiment: MMP-1 inhibition assay (fluorogenic peptide substrate)
# Measurement context: recombinant MMP-1 5.52 nM, Mca-PLGL-Dpa-AR-NH2 10 μM, 4 hours at room temperature; tested at 1, 10, 100 and 200 μM
Where a SMILES comes first, the peptide text is derived from it. [ ]: non-standard residue; d: D form. The star is where a group is joined. ξ: configuration not given here. Benzoyl(3,5-F2) = O=C(c1cc(F)cc(F)c1)*; NMeIle(3ξ) = CCC(C)[C@H](NC)C(=O)O; NMeF = CN[C@@H](Cc1ccccc1)C(=O)O; NMeA = CN[C@@H](C)C(=O)O; Dab = NCC[C@H](N)C(=O)O; NHOH = ON*
Quantity kind: pIC50
A value of pIC50 is the negative decimal logarithm of a concentration given in moles per litre.

Sample CCC(C)[C@@H](C(=O)N[C@@H](CCNC(=O)c1cc(F)cc(F)c1)C(=O)NO)N(C)C(=O)[C@@H]1CCCN1C(=O)[C@H](Cc1ccccc1)N(C)C(C)=O (some centres unmarked) [Example 11] (Ac-[NMeF]P[NMeIle(3ξ)][Dab](Benzoyl(3,5-F2))-{NHOH}) ; pIC50 observed: 5.04

The compound CCC(C)[C@@H](C(=O)N[C@@H](CCNC(=O)c1cc(F)cc(F)c1)C(=O)NO)N(C)C(=O)[C@@H]1CCCN1C(=O)CCCOc1ccccc1 (some centres unmarked) showed pIC50 equal to 4.94

Quick note, pIC50 for CCCC(=O)N1CCC[C@H]1C(=O)N(C)[C@H](C(=O)N[C@@H](CCNC(=O)c1cc(F)cc(F)c1)C(=O)NO)C(C)CC (some centres unmarked) landed at 5.33

For CCC(C)[C@@H](C(=O)N[C@@H](CCNC(=O)c1cc(F)cc(F)c1)C(=O)NO)N(C)C(=O)[C@@H]1CCCN1C(=O)[C@H](C)N(C)C(C)=O (some centres unmarked) [Example 12] (Ac-[NMeA]P[NMeIle(3ξ)][Dab](Benzoyl(3,5-F2))-{NHOH}) the compound record lists pIC50 as 4.83
